test.name: A qHTS for Small Molecule Inhibitors of Shiga Toxin (Confirmatory); also: nearly all actives have a fitted effect of over 75% in size; also: potency is read from the fitted curve at half-maximal effect
cond: Cell-based Shiga toxin protection reporter assay; series mostly up to 38.3 µM
Results filed as inconclusive are left out. Activity calls are given as the source filed them. Calls follow the shape of the full dose curve.
value.type: Potency

Worked examples, 4 molecules total:
[[record]]
molecule = "CCOc1ncccc1C(=O)Nc1c(C)n(C)n(-c2ccccc2)c1=O"
value_type = "Potency"
value = "inactive"

[[record]]
molecule = "COc1ccc(OCc2cccc(C(=O)O)c2)cc1"
value_type = "Potency"
value = "35.6 nM (active)"

[[record]]
molecule = "O=C(NCC(=O)N1CCCC(C(F)(F)F)C1)c1ccc(Oc2ccccc2)cc1 (stereo not given)"
value_type = "Potency"
value = "inactive"

[[record]]
molecule = "COc1ccccc1NC(=O)CSc1nnc(CC(=O)Nc2ccccc2F)n1C"
value_type = "Potency"
value = "inactive"


Looking for the measured Potency of CCN1CCN(Cc2c(O)ccc3c(=O)c(-c4ccc(OC)c(OC)c4)c(C(F)(F)F)oc23)CC1 , can you help? inactive
